Tested on: TMR-cC0-C2
assay_summary: Selleck library HTS, 532 nm excitation (FLT of TMR-cC0-C2 in presence of FMAL-actin)
Assay type: binding, human
experimental_conditions: initial screen, 30 μM compound
Where a name gives a salt, the structure may show the parent alone. *1 amine or outer side, *2 acyl side, *3 side chain or, on linkers, in order; H or OH if unused. Where a SMILES comes first, the peptide text is derived from it. Bridges are numbered along the chain shown (N, C = ends). [ ]: non-standard residue; d: D form. The star is where a group is joined. pTerphenylCO(4''-OnC5H11) = CCCCCOc1ccc(-c2ccc(-c3ccc(C(=O)*)cc3)cc2)cc1; Orn(4R-OH,5R-OH) = O=C([C@H](C[C@@H](O)[C@@H](O)N[*:3])N[*:1])[*:2]; Tetradecanoyl(10R,12S-Me2) = CC[C@H](C)C[C@H](C)CCCCCCCCC(=O)*; hTyr(3S-OH,4S-OH) = N[C@H](C(=O)O)[C@H](O)[C@@H](O)c1ccc(O)cc1; Pro(3S-OH,4S-Me) = C[C@H]1CN[C@H](C(=O)O)[C@H]1O; Gln(3R-OH) = NC(=O)C[C@@H](O)[C@H](N)C(=O)O; Pro(3S-OH) = O=C(O)[C@H]1NCC[C@@H]1O; Hyp = O=C(O)[C@@H]1C[C@@H](O)CN1
measurement_type: 532-nm Δτ, Repeat 1

Solved entries:
C[C@@H](O)[C@H]1C(=O)N2C(C(=O)[O-])=C(S[C@@H]3CN[C@H](C(=O)Nc4cccc(C(=O)O)c4)C3)[C@H](C)[C@H]12.[Na+] [Ertapenem sodium]	0.079 ns
Nc1ccc2cc3ccc(N)cc3nc2c1 [Proflavine hemisulfate]	-0.016 ns
CCCCCOc1ccc(-c2ccc(-c3ccc(C(=O)N[C@H]4C[C@@H](O)[C@@H](O)NC(=O)[C@@H]5[C@@H](O)[C@@H](C)CN5C(=O)[C@H]([C@@H](C)O)NC(=O)[C@H]([C@H](O)[C@@H](O)c5ccc(O)cc5)NC(=O)[C@@H]5C[C@@H](O)CN5C(=O)[C@H]([C@@H](C)O)NC4=O)cc3)cc2)cc1 [Anidulafungin] ({pTerphenylCO(4''-OnC5H11)}-[Orn(4R-OH,5R-OH)]T[Hyp][hTyr(3S-OH,4S-OH)]T[Pro(3S-OH,4S-Me)]; lactam 1-C)	0.403 ns

Briefly, 532-nm Δτ, Repeat 1 measured for CC[C@H](C)C[C@H](C)CCCCCCCCC(=O)N[C@H]1C[C@@H](O)[C@@H](O)NC(=O)[C@@H]2[C@@H](O)CCN2C(=O)[C@H]([C@H](O)CC(N)=O)NC(=O)[C@H]([C@H](O)[C@@H](O)c2ccc(O)cc2)NC(=O)[C@@H]2C[C@@H](O)CN2C(=O)[C@H]([C@@H](C)O)NC1=O [Pneumocandin B0] ({Tetradecanoyl(10R,12S-Me2)}-[Orn(4R-OH,5R-OH)]T[Hyp][hTyr(3S-OH,4S-OH)][Gln(3R-OH)][Pro(3S-OH)]; lactam 1-C) : 0.179 ns

Briefly, 532-nm Δτ, Repeat 1 measured for O=C(Nc1ccc(Cl)cc1)Nc1ccc(Cl)c(Cl)c1 [Triclocarban] : 0.374 ns

Briefly, 532-nm Δτ, Repeat 1 measured for C[C@H]1O[C@@H](O[C@H]2CC[C@@]3(C)[C@@H](CC[C@]4(C)[C@@H]3C=C[C@]35OC[C@@]6(CCC(C)(C)C[C@H]63)[C@H](O)C[C@]54C)[C@]2(C)CO)[C@H](O)[C@@H](O[C@@H]2O[C@H](CO)[C@@H](O)[C@H](O)[C@H]2O)[C@H]1O [Saikosaponin D] : 0.065 ns

Briefly, 532-nm Δτ, Repeat 1 measured for COc1cc2nc(N3CCN(C(=O)C4COc5ccccc5O4)CC3)nc(N)c2cc1OC (stereo not shown) [Doxazosin] : 0.125 ns

Briefly, 532-nm Δτ, Repeat 1 measured for CO/N=C(\C(=O)N[C@@H]1C(=O)N2C(C(=O)O)=C(C[N+]3(C)CCCC3)CS[C@H]12)c1csc(N)n1 [Cefepime dihydrochloride monohydrate] : 0.006 ns

Briefly, 532-nm Δτ, Repeat 1 measured for CO[C@@]1(NC(=O)C(C(=O)O)c2ccc(O)cc2)C(=O)N2C(C(=O)O)=C(CSc3nnnn3C)CO[C@@H]21 (stereo partly shown) [Latamoxef sodium] : -0.050 ns

Briefly, 532-nm Δτ, Repeat 1 measured for CC(C(=O)O)c1ccc2c(c1)CC(=O)c1ccccc1S2 (stereo not shown) [Zaltoprofen] : -0.015 ns

Briefly, 532-nm Δτ, Repeat 1 measured for C[n+]1cc2c3c(ccc2c2ccc4cc5c(cc4c21)OCO5)OCO3 [Sanguinarine chloride] : -0.160 ns
